Reported pEC50 by item:
molecular target: human Fpn-GFP fusion (Homo sapiens, UniProt Q9NP59); construct: expressed in transfected cells; host or cells: HEK-293 cell line #354 (derivative of HEK-293 Tet-ON Advanced, Clontech); assay: Ferroportin Internalization and Degradation Assay (FACS); assay type: cell-based; details: average of multiple measurements; Fpn-GFP MFI, HEK-293 cell line #354, FACS
Sequence (Q9NP59 whole entry, the tested form may be a part): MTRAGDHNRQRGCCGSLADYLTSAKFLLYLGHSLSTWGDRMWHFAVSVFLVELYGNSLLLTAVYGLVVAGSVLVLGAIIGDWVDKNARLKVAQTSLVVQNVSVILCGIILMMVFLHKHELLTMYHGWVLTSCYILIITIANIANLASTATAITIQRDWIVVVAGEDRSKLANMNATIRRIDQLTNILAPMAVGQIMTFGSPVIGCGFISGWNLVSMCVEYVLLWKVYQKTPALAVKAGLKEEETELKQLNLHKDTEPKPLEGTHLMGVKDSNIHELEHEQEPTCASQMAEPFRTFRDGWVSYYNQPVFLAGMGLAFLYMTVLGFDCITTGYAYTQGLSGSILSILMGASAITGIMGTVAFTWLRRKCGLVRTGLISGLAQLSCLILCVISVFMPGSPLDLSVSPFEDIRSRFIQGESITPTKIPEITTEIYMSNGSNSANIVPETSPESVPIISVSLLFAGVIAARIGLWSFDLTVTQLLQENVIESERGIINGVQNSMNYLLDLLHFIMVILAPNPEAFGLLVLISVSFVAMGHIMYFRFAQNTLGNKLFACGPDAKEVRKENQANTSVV
# log scale: pEC50 equals minus log10 of the concentration in mol/L

The recorded pEC50 for entry O=C(NCc1ncccc1F)c1coc(CCNCCc2nc3c(F)cccc3[nH]2)n1 equals 6.34

====

Reported pIC50 by item:
target: ferroportin (Fpn) (Mus musculus); construct: host or cells: J774 mouse macrophage cell line, Fe(III)-NTA induced; test: Hepcidin Internalization Assay (J774); format: cell-based; conditions: average of multiple measurements; inhibition of TMR-hepcidin (25 nM) internalization into J774 cells; read-out: J774 IC50
Sequence (Q9JHI9 whole entry): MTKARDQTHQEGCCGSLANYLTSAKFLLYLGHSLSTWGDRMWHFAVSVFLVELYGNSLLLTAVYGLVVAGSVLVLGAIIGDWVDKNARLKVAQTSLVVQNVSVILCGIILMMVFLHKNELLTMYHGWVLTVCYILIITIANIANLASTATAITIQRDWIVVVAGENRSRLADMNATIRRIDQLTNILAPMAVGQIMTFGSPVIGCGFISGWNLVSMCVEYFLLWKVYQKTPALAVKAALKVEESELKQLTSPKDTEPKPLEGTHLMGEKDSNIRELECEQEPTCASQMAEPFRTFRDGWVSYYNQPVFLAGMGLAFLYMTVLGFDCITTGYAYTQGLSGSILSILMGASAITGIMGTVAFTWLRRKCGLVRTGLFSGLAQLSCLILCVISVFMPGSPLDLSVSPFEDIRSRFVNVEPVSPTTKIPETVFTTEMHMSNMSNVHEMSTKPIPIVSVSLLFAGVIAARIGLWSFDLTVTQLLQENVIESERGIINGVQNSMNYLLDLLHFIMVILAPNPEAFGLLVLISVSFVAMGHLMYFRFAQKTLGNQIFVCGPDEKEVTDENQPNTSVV
# log scale: pIC50 equals minus log10 of the concentration in mol/L

molecule="O=C(NC1CCCc2cccnc21)c1csc(CCNCc2nc3ccccc3[nH]2)n1 (centres unmarked)" recorded_result=7.52
molecule=O=C(CCNCc1nc2ccccc2[nH]1)NCC(=O)NCc1ncccc1F recorded_result=5.41
molecule=O=C(NCc1cccnn1)c1nc(CCNCCc2nc3ccccc3[nH]2)sc1Cl recorded_result=6.88
molecule=O=C(NCc1ncccc1F)c1csc(C2CN(CCc3nc4ccccc4[nH]3)C2)n1 recorded_result=6.54

The recorded pIC50 for entry Cc1c(CNC(=O)c2csc(CCNCc3nc4ccccc4[nH]3)n2)cnn1C equals 6.34
